Test: AR‐42 plasma and tissue pharmacokinetics, single oral dose, tumor‐free CD2F1 mice
Type: in vivo, mouse
Details: 10 mg/kg oral, Muscle
Experimental: Pharmacokinetic studies were performed as previously described (Cheng et al, 2016) with the following modifications. Seven week‐old, male, tumor‐free CD2F1 mice (n = 3 per dose and time point) were administered single oral doses of 10, 20, and 50 mg/kg AR‐42 and then sacrificed 0.25, 4, and 24 h later. […] Mouse plasma and muscle pharmacokinetic parameters were estimated as previously described with the exception of Cavg, which was calculated as AUCall/[dosing interval(h)].
measurementName: Cmax (nM)

[[record]]
compound = "CC(C)[C@H](C(=O)Nc1ccc(C(=O)NO)cc1)c1ccccc1 [AR‐42]"
measurementname = "Cmax"
value = 1110

